pIC50: −log10 of the molar value.
# pIC50 against TYRO3 (Homo sapiens, UniProt Q06418), merged from multiple literature sources

// solved cases for pIC50 follow
C[C@@H](CC(F)(F)F)Nc1ncc2c(C3=CCN(C(=O)OC(C)(C)C)CC3)cc([C@H]3CC[C@H](O)CC3)n2n1 ... ≥ 7.00
COCCn1cc(-c2cc([C@H]3CC[C@H](O)CC3)n3nc(N[C@@H](C)COC(F)F)ncc23)cn1 ... ≥ 7.00
COCC[C@@H](C)Nc1ncc2c(-c3ccc(CN4CCOCC4)cc3)cc([C@H]3CC[C@H](O)CC3)n2n1 ... 6.00 to 7.00
Nc1ncnn2c1c(-c1ccc(NC(=O)c3cccn(-c4ccc(F)cc4)c3=O)cc1F)cc2[C@H]1CC[C@@H](O)CC1 ... ≥ 8.30
CCS(=N)(=O)c1ccc(-c2n[nH]c3ncc(-c4ccc5c(c4)CCC(C)(N4CCC[C@H]4C)CC5)cc23)cc1 (stereo partly shown) ... 6.00 to 7.00
Cc1c(CC#N)cc(C(=O)Nc2ccc(-c3cc(C4CCN(C(=O)C(C)C)CC4)n4ncnc(N)c34)cc2)c(=O)n1-c1cncc(F)c1 ... 7.00 to 8.00

Consider the additional compound presented here.
Lab request: please report pIC50 under test system TYRO3 (Homo sapiens, UniProt Q06418) for `NS(=O)(=O)c1ccc(-c2n[nH]c3ncc(-c4ccc5c(c4)CCN(C4CCCC4)CC5)cc23)cc1Cl`
6.00 to 7.00
